Values from the supplement of paper PMC10498489

# Test system: HepG2 Srxn1-GFP reporter cells (+30 nM CDDO-Me)
# Assay summary: Srxn1-GFP intensity median modified Z-score relative to plate median; higher = stronger NRF2 / oxidative stress reporter activation, active = hit call of the paper
# Run conditions: 10 µM; exposure time: 24h
Among all 2,300 compounds or so, about 330 (14%) showed activity. The list is a sample of the results.
Label y for high-side Srxn1-GFP intensity median modified Z-score (at or above -0.4) and n for low-side Srxn1-GFP intensity median modified Z-score (below it).

# Molecule, Class assignment
records = [
    ("CNCC(=O)c1ccc(O)c(O)c1", "n"),
    ("N=C(N)NOCCC(N)C(=O)O (stereo not given)", "n"),
    ("CC(=O)Oc1ccc(/C=C/c2cc(OC(C)=O)cc(OC(C)=O)c2)cc1", "y"),
    ("CC1(C)C(C=C(Cl)Cl)C1C(=O)OCc1cccc(Oc2ccccc2)c1 (stereo not given)", "n"),
    ("CN1C2CCC1CC(OC(=O)C(CO)c1ccccc1)C2 (stereo not given)", "n"),
]
